# Target or test system: canine TRPM8 (Canis lupus familiaris, UniProt Q1A7N1)
# Construct: expressed in transfected cells
# Sequence (Q1A7N1 1-1104): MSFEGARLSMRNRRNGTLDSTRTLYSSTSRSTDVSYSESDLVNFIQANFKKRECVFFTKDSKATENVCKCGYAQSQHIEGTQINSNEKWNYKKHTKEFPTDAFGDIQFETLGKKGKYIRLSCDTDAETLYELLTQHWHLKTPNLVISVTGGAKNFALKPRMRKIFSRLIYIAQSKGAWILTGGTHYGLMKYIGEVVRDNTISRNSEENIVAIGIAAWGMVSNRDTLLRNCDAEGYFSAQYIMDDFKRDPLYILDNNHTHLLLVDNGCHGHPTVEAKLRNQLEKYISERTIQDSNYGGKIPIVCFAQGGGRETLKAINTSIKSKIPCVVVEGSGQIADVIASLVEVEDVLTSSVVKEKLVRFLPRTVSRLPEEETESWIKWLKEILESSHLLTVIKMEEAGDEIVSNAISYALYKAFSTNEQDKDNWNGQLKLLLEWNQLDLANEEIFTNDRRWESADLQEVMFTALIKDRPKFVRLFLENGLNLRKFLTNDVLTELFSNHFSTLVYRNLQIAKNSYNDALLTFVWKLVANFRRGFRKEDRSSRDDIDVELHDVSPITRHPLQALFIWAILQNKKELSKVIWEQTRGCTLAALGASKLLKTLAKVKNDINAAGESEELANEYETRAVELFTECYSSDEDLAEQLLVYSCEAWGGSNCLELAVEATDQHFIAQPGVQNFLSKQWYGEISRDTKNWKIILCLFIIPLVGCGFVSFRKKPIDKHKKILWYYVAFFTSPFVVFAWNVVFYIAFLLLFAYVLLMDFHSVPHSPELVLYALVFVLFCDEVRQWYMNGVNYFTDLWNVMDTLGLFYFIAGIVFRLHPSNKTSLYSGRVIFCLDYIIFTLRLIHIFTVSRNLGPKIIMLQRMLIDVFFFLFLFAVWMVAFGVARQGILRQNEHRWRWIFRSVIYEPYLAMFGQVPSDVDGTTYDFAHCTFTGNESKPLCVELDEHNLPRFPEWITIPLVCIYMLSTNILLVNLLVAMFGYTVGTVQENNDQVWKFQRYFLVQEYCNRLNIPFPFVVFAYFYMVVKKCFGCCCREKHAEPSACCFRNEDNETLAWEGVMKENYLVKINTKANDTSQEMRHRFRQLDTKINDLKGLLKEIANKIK
# Assay details: In Vitro Canine TRPM8 Functional Assay (icilin-induced intracellular Ca2+, FLIPR/FDSS)
# Type: cell-based
# Test context: HEK293, 0.2 μM compound; HEK293 cells stably expressing canine TRPM8; icilin activation; read-out: % Inh @ 0.2 μM
Value type: inhibition at 0.2 µM (%)
Note: unit % is implicit; provide only the numeric part.

Reference set, count: 3
1. CCCCN(c1nc2ccccc2n1C)S(=O)(=O)c1ccccc1 [Compound #4] : 92
2. Cn1c(N(Cc2ccc(C(F)(F)F)cc2)S(=O)(=O)c2ccccc2)nc2cc(F)ccc21 [compound 43] : 100
3. Cn1c(N(Cc2ccc(OC(F)F)cc2)S(=O)(=O)c2ccccc2)nc2ccccc21 [compound 23] : 102

Look up inhibition at 0.2 µM for this compound: O=S(=O)(c1ccccc1)N(Cc1ccc(C(F)(F)F)c(F)c1)c1nc2ccccc2n1CC(F)(F)F [Compound #60] 89

Can you handle O=S(=O)(c1ccccc1)N(Cc1ccc(OC(F)(F)F)cc1)c1nc2cccc3c2n1CCC3 [compound 62] next? 100

Can you handle Cn1c(N(Cc2ccc(OC(F)(F)F)cc2)S(=O)(=O)c2ccccc2)nc2ccccc21 [Compound #6] next? 101
